- TARGET_ENTITY: T1, GABARAPL1 (residues 1-117 of human GABARAPL1) (human, UniProt Q9H0R8 1-117)
- T1 construct: also called GABARPL1
- ASSAY_COMMENT: ITC
- STATED_CONDITIONS: both partners purified
EXPERIMENTAL_ENDPOINT: Kd (nM)
# output: bare number, implied unit nM

Name the recorded Kd for DVEMESEEESDDDGFVEVD [NSs4 (residues 247-265 of RVFV NSs)] . 490
